- Tested on: RXR α, β, γ
- methodDescription: Activity for RXR (CAT reporter in HaCaT cells)
- Assay type: cell-based
- conditionParameters: 1 μM, CAT ELISA, Control = 1.0
endpointLabel: Relative activity against RXR α, β, γ

CC1=C(/C=C/C(C)=C/C=C/C(C)=C/COC(=O)/C=C(C)/C=C/C=C(C)/C=C/C2=C(C)CCCC2(C)C)C(C)(C)CCC1 [Compound of formula (1), Retinyl retinoate] ... 1.0
CC1=C(/C=C/C(C)=C/C=C/C(C)=C/COC(=O)c2ccccc2O)C(C)(C)CCC1 [Retinyl salicylate] ... 1.0
CC1=C(/C=C/C(C)=C/C=C/C(C)=C/C(=O)O)C(C)(C)CCC1 ... 9.5
CC(=O)Oc1ccccc1C(=O)OC/C=C(C)/C=C/C=C(C)/C=C/C1=C(C)CCCC1(C)C [Retinyl acetyl salicylate] ... 1.1
CC1=C(/C=C/C(C)=C/C=C/C(C)=C/CO)C(C)(C)CCC1 ... 1.0

###

- assayedTarget: RAR γ (Homo sapiens)
- Construct: expressed in transfected cells; host or cells: HaCaT
- Sequence (P13631 whole entry, species assumed): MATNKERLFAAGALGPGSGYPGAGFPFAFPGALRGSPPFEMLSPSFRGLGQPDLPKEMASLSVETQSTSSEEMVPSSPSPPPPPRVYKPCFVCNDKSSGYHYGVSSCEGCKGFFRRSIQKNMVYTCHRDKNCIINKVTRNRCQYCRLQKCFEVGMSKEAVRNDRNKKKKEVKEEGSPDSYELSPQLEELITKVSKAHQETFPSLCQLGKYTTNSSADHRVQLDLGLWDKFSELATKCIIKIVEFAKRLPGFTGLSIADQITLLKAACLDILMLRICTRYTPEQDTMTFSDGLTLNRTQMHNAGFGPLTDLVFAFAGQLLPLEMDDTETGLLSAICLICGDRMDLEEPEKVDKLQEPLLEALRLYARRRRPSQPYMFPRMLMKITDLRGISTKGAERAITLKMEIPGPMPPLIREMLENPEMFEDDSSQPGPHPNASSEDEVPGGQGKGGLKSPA
- methodDescription: Activity for RAR γ (CAT reporter in HaCaT cells)
- Format: cell-based
- conditionParameters: 1 μM, CAT ELISA, Control = 1.0
Entries annotated with measured Relative activity against RAR γ
endpointLabel: Relative activity against RAR γ

CC1=C(/C=C/C(C)=C/C=C/C(C)=C/CO)C(C)(C)CCC1 [Retinol] ... 0.9
CC1=C(/C=C/C(C)=C/C=C/C(C)=C/COC(=O)/C=C(C)/C=C/C=C(C)/C=C/C2=C(C)CCCC2(C)C)C(C)(C)CCC1 [Compound of formula (1), Retinyl retinoate] ... 1.1
CC1=C(/C=C/C(C)=C/C=C/C(C)=C/COC(=O)c2ccccc2O)C(C)(C)CCC1 [Retinyl salicylate] ... 1.0
CC(=O)Oc1ccccc1C(=O)OC/C=C(C)/C=C/C=C(C)/C=C/C1=C(C)CCCC1(C)C [Retinyl acetyl salicylate] ... 1.0
CC1=C(/C=C/C(C)=C/C=C/C(C)=C/C(=O)O)C(C)(C)CCC1 [Retinoic acid] ... 3.0

###

- assayedTarget: RAR α (Homo sapiens, UniProt P10276)
- Construct: expressed in transfected cells; host or cells: HaCaT
- Sequence (P10276 whole entry, species assumed): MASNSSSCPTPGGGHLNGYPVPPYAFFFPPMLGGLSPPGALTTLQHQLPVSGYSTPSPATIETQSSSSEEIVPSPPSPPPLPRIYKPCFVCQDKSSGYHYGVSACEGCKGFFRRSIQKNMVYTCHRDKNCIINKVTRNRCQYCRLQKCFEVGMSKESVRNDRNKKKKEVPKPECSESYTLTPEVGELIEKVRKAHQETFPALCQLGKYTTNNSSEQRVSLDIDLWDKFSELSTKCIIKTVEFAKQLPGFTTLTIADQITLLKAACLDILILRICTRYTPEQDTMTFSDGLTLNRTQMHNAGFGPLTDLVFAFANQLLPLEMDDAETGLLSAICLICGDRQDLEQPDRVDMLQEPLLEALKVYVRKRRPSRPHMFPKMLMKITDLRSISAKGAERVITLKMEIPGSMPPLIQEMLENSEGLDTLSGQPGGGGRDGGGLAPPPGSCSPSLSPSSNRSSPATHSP
- methodDescription: Activity for RAR α (CAT reporter in HaCaT cells)
- Type: cell-based
- conditionParameters: 1 μM, CAT ELISA, Control = 1.0
Respond with criterion met for Relative activity against RAR α values of 30 and above, criterion not met for values below.

CC1=C(/C=C/C(C)=C/C=C/C(C)=C/C(=O)O)C(C)(C)CCC1 [Retinoic acid] ... criterion met
CC(=O)Oc1ccccc1C(=O)OC/C=C(C)/C=C/C=C(C)/C=C/C1=C(C)CCCC1(C)C [Retinyl acetyl salicylate] ... criterion not met
CC1=C(/C=C/C(C)=C/C=C/C(C)=C/COC(=O)c2ccccc2O)C(C)(C)CCC1 [Retinyl salicylate] ... criterion not met
CC1=C(/C=C/C(C)=C/C=C/C(C)=C/COC(=O)/C=C(C)/C=C/C=C(C)/C=C/C2=C(C)CCCC2(C)C)C(C)(C)CCC1 [Compound of formula (1), Retinyl retinoate] ... criterion not met
CC1=C(/C=C/C(C)=C/C=C/C(C)=C/CO)C(C)(C)CCC1 [Retinol] ... criterion not met
